system: c-Abl (mouse); assay: phosphorylation enrichment, bacterial display (enrichment ratio); higher = better substrate or ligand; peptides without Tyr show the background
Classification field: True = phosphorylation enrichment at or over 0.7; False = phosphorylation enrichment under 0.7.

             macromolecule_sequence  class_assignment
 0       RGVTHYILQTF [SLC39A4_Y359]              True
 1         ADDSYYTARSA [ZAP70_Y493]             False
 2   MIAIRYSHSRR [ACOXL_Y260_T255M]             False
 3     FSPPYYHRNCM [HGD_Y334_R330S]              True
 4     IQKWEYVPLGT [FAH_Y244_P249T]             False
 5         FYNSEYGELSE [FLT4_Y1337]              True
 6    CTTIHCNYMCN [TP53_Y234_Y234C]              True
 7   CGASGYSATST [CERT1_Y143_S138C]              True
 8       EFKDAYKFAAD [BRDT_Y335_YF]             False
 9      GLRYGYGVLGG [KRTAP20-2_Y15]             False
10  FQHLRYIKQLG [SAMHD1_Y146_R143H]             False

====

system: Fer (mouse); experiment: phosphorylation enrichment, bacterial display (enrichment ratio); higher = better substrate or ligand; peptides without Tyr show the background
Listed here: items and their measured phosphorylation enrichment.
value.type: phosphorylation enrichment

>>> df
            macromolecule_sequence                  value_type  measurement
0           ALIKAYDKAVA [SMN1_Y43]  phosphorylation enrichment        0.282
1    HEVHIYENSGA [ARPC1B_Y35_K37N]  phosphorylation enrichment         1.26
2    NQELIYEGQRL [TBK1_Y354_R357Q]  phosphorylation enrichment         11.6
3  SHNELYYEAAE [VANGL1_Y344_E347A]  phosphorylation enrichment         3.52
4    GVMLLYYGRYN [ADGRD1_Y85_T82M]  phosphorylation enrichment        0.515
5    CVVVPYEPPEV [TP53_Y220_S215C]  phosphorylation enrichment        0.854
6       KASGKYFAMKI [AKT3_Y173_YF]  phosphorylation enrichment         0.34

====

target: c-Src SH2; assay: SH2 binding enrichment of the phosphorylated peptide, bacterial display (enrichment ratio); higher = better substrate or ligand; peptides without Tyr show the background;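 note: peptide library displayed on the E. coli surface as eCPX fusions, selected cells deep-sequenced, score is each peptide's frequency after selection divided by its frequency in the input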
value.type: SH2 binding enrichment

In [3]: df
Out[3]:
              macromolecule_sequence  measured_on              value_type  measurement
 0           LLKAGYHGVLR [TTPA_Y100]    c-Src SH2  SH2 binding enrichment         1.05
 1      PKKKQYTSIHH [APP_Y728_L723P]    c-Src SH2  SH2 binding enrichment        0.936
 2     CVVVPYEPPEV [TP53_Y220_S215C]    c-Src SH2  SH2 binding enrichment        0.517
 3       KLMTEYKKRKQ [ARFGEF3_Y2029]    c-Src SH2  SH2 binding enrichment         1.08
 4     QRRYLYYYSYL [PTEN_Y176_V175L]    c-Src SH2  SH2 binding enrichment        0.507
 5  QRASDYFSQQM [GBP6_Y333_A331S_YF]    c-Src SH2  SH2 binding enrichment        0.464
 6  CTTIHYNFVCN [TP53_Y234_M237V_YF]    c-Src SH2  SH2 binding enrichment         1.93
 7      ADEEFYEIIAA [FEStide_F_2014]    c-Src SH2  SH2 binding enrichment        0.729
 8   LGRKLYSIATP [ABHD12_Y345_A349T]    c-Src SH2  SH2 binding enrichment        0.616
 9    MGGSLYFSYPD [HIKESHI_Y55_V54L]    c-Src SH2  SH2 binding enrichment        0.656
10             EVEFEYPFRLH [SYP_Y73]    c-Src SH2  SH2 binding enrichment        0.755
11    PTYENYANSTQ [SLC12A3_Y70_H69N]    c-Src SH2  SH2 binding enrichment         2.96
12    ASYGPNTRVQS [FOXL2_Y258_Y258N]    c-Src SH2  SH2 binding enrichment        0.543
13           NQDRTYYESVR [SPEN_Y632]    c-Src SH2  SH2 binding enrichment            5
